Source: patent US6420387B1

property_label: melting point (°C)

Example cases with answers are listed next.
• Cn1cncc1C(CC#N)(c1ccc(Cl)cc1)c1ccc2c(c1)c(-c1cccc(Cl)c1)cc(=O)n2C (racemic) = 151.3
• COC(c1ccc(Cl)cc1)(c1ccc2c(c1)c(-c1cccc(Cl)c1)cc(=O)n2C)c1cncn1C (racemic) (hydrate or solvate) = 154.6
• Cn1cncc1C(c1ccc(Cl)cc1)c1ccc2c(c1)c(-c1ccccc1)cc(=O)n2C (racemic) = 96.8
• Cn1cnc(C(c2ccc(Cl)cc2)c2ccc3c(c2)c(-c2ccccc2)cc(=O)n3C)c1 (racemic) = 149.9
• CCCCn1cncc1C(O)(c1ccc(Cl)cc1)c1ccc2c(c1)c(-c1cccc(Cl)c1)cc(=O)n2C (racemic) = 174.6

a = Cn1cncc1C(c1ccc(Cl)cc1)c1ccc2c(c1)c(-c1cccc(Cl)c1)cc(=O)n2C (racemic) (hydrate or solvate)
b = Cn1cncc1C(O)(c1ccc(Cl)cc1)c1ccc2c(c1)c(-c1cccc(Cl)c1)cc(=O)n2C (racemic)
Field: lower recorded melting point (choose a or b ) Provide the label of your selected option as the answer.
a

----------
- assayed_target: Human farnesyl protein transferase (Homo sapiens, UniProt P49354+P49356)
- Construct: grown as monolayer cell cultures were used as a source of human enzyme; endogenous in cells; 30-50% ammonium sulfate fraction, then Q Fast Flow Sepharose
- assay_explanation: In vitro assay for inhibition of farnesyl protein transferase (scintillation proximity assay)
- assay_conditions: concentration producing 50% inhibition of enzyme activity; [3H]-farnesylpyrophosphate and biotinylated lamin B peptide substrates, 60 min at 37° C.
property_label: IC50 (nM)

* CCOc1cccc(-c2cc(=O)n(C)c3ccc(C(O)(c4ccc(Cl)cc4)c4cncn4C)cc23)c1 (stereo not shown) [Compound 34] | 1.6
* CCc1cccc(-c2cc(=O)n(C)c3ccc(C(N)(c4ccc(Cl)cc4)c4cncn4C)cc23)c1 (stereo not shown) [Compound 98] | 6.4
* Cn1cncc1C(O)(c1ccc(Cl)cc1)c1ccc2c(c1)c(-c1ccccc1)cc(=O)n2C (stereo not shown) [Compound 1] | 6

I = CCOC(=O)CC(c1ccc(Cl)cc1)(c1ccc2c(c1)c(-c1cccc(Cl)c1)cc(=O)n2C)c1cncn1C (stereo not shown) [Compound 58]
II = COCCNC(c1ccc(Cl)cc1)(c1ccc2c(c1)c(-c1cccc(Cl)c1)cc(=O)n2C)c1cncn1C (stereo not shown) [Compound 67]
III = CN(C)C(c1ccc(Cl)cc1)(c1ccc2c(c1)c(-c1cccc(Cl)c1)cc(=O)n2C)c1cncn1C (stereo not shown) [Compound 66]
IV = Cn1c(=O)cc(-c2ccccc2)c2cc(C(c3ccc(Cl)cc3)c3c[nH]cn3)ccc21 (stereo not shown) [Compound 42]
Order field: IC50 | Direction: descending (largest first) Sort the labels as requested; that list is your answer.
IV, II, III, I
(IV: 910 nM, II: 5.9 nM, III: 4 nM, I: 2.8 nM)

----------
- assayed_target: Human farnesyl protein transferase (Homo sapiens, UniProt P49354+P49356)
- Construct: grown as monolayer cell cultures were used as a source of human enzyme; endogenous in cells; host or cells: KHOS (Kirsten virus transformed human osteosarcoma) cells, grown as solid tumors in nude mice or as monolayer cultures; 30-50% ammonium sulfate fraction, then Q Fast Flow Sepharose
- assay_explanation: In vitro assay for inhibition of farnesyl protein transferase (scintillation proximity assay)
- Format: biochemical
- assay_conditions: concentration producing 50% inhibition of enzyme activity; [3H]-farnesylpyrophosphate and biotinylated lamin B peptide substrates, 60 min at 37° C.
property_label: IC50 (nM)

* CCCOc1cccc(-c2cc(=O)n(C)c3ccc(C(c4ccc(Cl)cc4)c4cncn4C)cc23)c1 (stereo not shown) | 5.7
* COC(c1ccc(Cl)cc1)(c1ccc2c(c1)c(-c1cccc(Cl)c1)cc(=O)n2C)c1cncn1C (racemic) | 24
* Cn1cncc1C(O)(c1ccc(Cl)cc1)c1ccc2c(c1)c(-c1cccc(O)c1)cc(=O)n2C (stereo not shown) | 11.6
* Cn1cncc1C(c1ccc(Cl)cc1)c1ccc2[nH]c(=O)cc(-c3cccc(Cl)c3)c2c1 (stereo not shown) | 1.6
* Cn1cncc1C(c1ccc(Cl)cc1)(c1ccc2c(c1)c(-c1cccc(Cl)c1)cc(=O)n2C)n1ccnc1 (stereo not shown) | 0.62

I = CCCOc1cccc(-c2cc(=O)n(C)c3ccc(C(O)(c4ccc(Cl)cc4)c4cncn4C)cc23)c1 (stereo not shown)
II = Cn1cncc1C(O)(c1ccc(Cl)cc1)c1ccc2c(c1)c(-c1cccc(Cl)c1)cc(=O)n2C (racemic) [Compound 3]
III = CCOCCCOC(c1ccc(Cl)cc1)(c1ccc2c(c1)c(-c1cccc(Cl)c1)cc(=O)n2C)c1cncn1C (stereo not shown)
Order field: IC50 | Direction: descending (largest first) Sort the labels as requested; that list is your answer.
III, I, II
(III: 57 nM, I: 10.1 nM, II: 1.7 nM)

P = Cn1cncc1C(CO)(c1ccc(Cl)cc1)c1ccc2c(c1)c(-c1cccc(Cl)c1)cc(=O)n2C (stereo not shown)
Q = Cn1cncc1C(C)(c1ccc(Cl)cc1)c1ccc2c(c1)c(-c1cccc(Cl)c1)cc(=O)n2C (racemic)
Field: lower recorded IC50 (choose P or Q ) Provide the label of your selected option as the answer.
Q

a = Cn1cncc1C(OCCCO)(c1ccc(Cl)cc1)c1ccc2c(c1)c(-c1cccc(Cl)c1)cc(=O)n2C (stereo not shown)
b = Cn1cncc1C(O)(c1ccc(Cl)cc1)c1ccc2c(c1)c(-c1cccc(Cl)c1)cc(=O)n2C (stereo not shown) [Compound 24]
Field: lower recorded IC50 (choose a or b ) Provide the label of your selected option as the answer.
b
(b: 2.7 nM, a: 18.4 nM)
